# Tested on: TK-10 renal
# METHOD_NOTES: NCI tumour cell line growth inhibition, 48 h
ASSAY_METRIC: TGI

Please review the following examples before continuing.
>>> value_observed("NC(CCC(=O)c1ccccn1)C(=O)O (centres undefined)")
"> 100 µM"
>>> value_observed("COC(=O)/C=C(C)/C=C\\COC1CCCCO1 (centres undefined)")
"> 100 µM"
>>> value_observed("OC12CCC3(OC4CCCCO4)c4ccccc4C3C1c1ccccc12 (centres undefined)")
"> 100 µM"
>>> value_observed("Nc1nc(Sc2ccc([N+](=O)[O-])c3nonc23)c2[nH]cnc2n1")
"6.4 µM"
>>> value_observed("O=C(O)CN1C(=O)c2ccc(NC(=O)C(=O)O)cc2S1(=O)=O")
"> 100 µM"

What measured TGI goes with O=C(/C=C/c1ccc(-c2ccccc2)cc1)NCc1ccc(C(=O)NCCc2ccccc2)cc1 ?
> 100 µM

What measured TGI goes with CN(C(=O)Cc1ccccc1)n1cn[n+](CC(=O)OC(C)(C)C)c1 ?
> 10 µM

What measured TGI goes with Cc1ccc(C)c2c1C1CCCCC3(OCCCO3)C21O (centres undefined) ?
> 100 µM

What measured TGI goes with O=C1Cc2cc3ccccc3nc2-c2ccccc2N1 ?
> 100 µM

---

TGI reference
# Tested on: UACC-62 melanoma
# METHOD_NOTES: NCI tumour cell line growth inhibition, 48 h

Please review the following examples before continuing.
>>> value_observed("CC(=O)CCC1(c2ccccc2)OC(=O)C(C#N)=C1c1ccccc1 (stereo not drawn)")
"> 100 µM"
>>> value_observed("CCOc1ccc2nc(NC(=O)C(=O)C3C(=O)C(CC4C(=O)c5ccccc5C4=O)C(=O)CC3(C)C)sc2c1 (stereo not drawn)")
"> 100 µM"

Moving on to the next compound.
What measured TGI goes with [O]=[Sn]([CH]1CCCCC1)[CH]1CCCCC1 ?
0.743 µM

---

# Tested on: IGROV1 ovarian
# METHOD_NOTES: NCI tumour cell line growth inhibition, 48 h; in the data active = GI50 below about 0.43 µM; inactive = the rest
Choose one outcome from this list and give only that: yes (1) for active, no (0) for inactive

As a guide, the following entries are already answered.
>>> assigned_category("O=c1c(I)c[nH]cc1I")
"no (0)"
>>> assigned_category("N[C@@H]1CCCN(c2c(Br)cnc3[nH]cc(NC(=O)C4CC4)c23)C1")
"yes (1)"
>>> assigned_category("COc1cc2ncn(-c3cc(OCc4ccccc4C(F)(F)F)c(C(N)=O)s3)c2cc1OC")
"no (0)"
>>> assigned_category("N#C[S-].[La+3].c1ccc(-c2ccccn2)nc1.c1ccc(-c2ccccn2)nc1.c1ccc(-c2ccccn2)nc1")
"no (0)"
>>> assigned_category("CC[C@H](C)[C@H](NC(=O)C12C3C4C1C1C2C3C41NC)C(=O)N(C)[C@H](C[C@@H](OC(C)=O)c1nc(C(=O)N[C@@H](Cc2ccccc2)C[C@H](C)C(=O)OC)cs1)C(C)C (some centres not stated)")
"no (0)"

Test call for this compound, please: [CH3][Sn]([CH3])([CH3])[S]C(=S)N1CCOCC1
no (0)

Test call for this compound, please: CCCN1C(=O)/C(=C/c2ccc(SC(F)(F)F)cc2)SC1=Nc1ccc(OC)cc1
no (0)

---

TGI reference
# Tested on: NCI-H23 lung
# METHOD_NOTES: NCI tumour cell line growth inhibition, 48 h

>>> value_observed("Cc1cc(Cl)ccc1N=C1NC(=O)C(CC(=O)Nc2cccc(Cl)c2)S1 (centres undefined)")
"> 100 µM"

Notebook: pull reported TGI for NCI-H23 lung, entry NC(CCC(=O)c1ccccn1)C(=O)O (centres undefined)
> 100 µM

Notebook: pull reported TGI for NCI-H23 lung, entry Cc1nc2c(C)ccc([N+](=O)[O-])c2c(NCCCN(C)C)c1C
> 100 µM

Notebook: pull reported TGI for NCI-H23 lung, entry Cc1cccc2c(=O)c3c(O)cc(O)cc3n(C)c12
> 100 µM

Notebook: pull reported TGI for NCI-H23 lung, entry CC[C@H](C)[C@H](NC(=O)[C@H]1CCCCN1C)C(=O)N(C)[C@H](CCc1nc(C(=O)N[C@@H](Cc2ccccc2)C[C@H](C)C(=O)O)cs1)C(C)C
> 25 µM

Notebook: pull reported TGI for NCI-H23 lung, entry CC(C)(C)OC(=O)Cn1ncn(NC(=O)Cc2ccccc2)c1=S
> 10 µM

Notebook: pull reported TGI for NCI-H23 lung, entry CC1(C)N=C(C(N)=O)c2[nH]cnc2N1
> 100 µM

Notebook: pull reported TGI for NCI-H23 lung, entry COc1cc2c(c(OC)c1OC)-c1cc(I)c(O)cc1[C@@H](NC(C)=O)CC2
> 100 µM

Notebook: pull reported TGI for NCI-H23 lung, entry CCOC(=O)[C@@]12C[C@](/C=C/OC)(O[Si](C)(C)C)[C@@]13c1cc(OC)c(OC)cc1CCN3C(=O)C2=O
> 100 µM

---

# Test system: SF-295 CNS
# METHOD_NOTES: NCI tumour cell line growth inhibition, 48 h
ASSAY_METRIC: TGI

Please review the following examples before continuing.
>>> value_observed("CC(C)(C)N/N=C(/Cc1nc2c3c(ccc2[nH]c1=O)C(=O)c1ccccc1C3=O)C(=O)NC1=C(Cl)C(=O)c2ccccc2C1=O")
"> 100 µM"
>>> value_observed("S=c1ncc(-c2cncc(-c3cnc(=S)[nH]c3)n2)c[nH]1")
"> 100 µM"

Moving on to the next molecule.
Notebook: pull reported TGI for SF-295 CNS, entry CCOc1ccc(NC(=O)CC2SC(=Nc3ccc(C)cc3)NC2=O)cc1 (stereo not drawn)
> 100 µM

---

# Tested on: HCT-15 colon
# METHOD_NOTES: NCI tumour cell line growth inhibition, 48 h
ASSAY_METRIC: TGI

>>> value_observed("NCCCN(CCCCN(CCCN)CCCc1ccccc1)CCCc1ccccc1")
"4.24 µM"
>>> value_observed("CC(=O)OC1CCn2c1nc1cc([N+](=O)[O-])c(C)cc12 (stereo not drawn)")
"> 100 µM"
>>> value_observed("Nc1nc(Cl)c2ncn(CCCC(c3ccccc3)P(=O)(O)O)c2n1 (stereo not drawn)")
"> 100 µM"
>>> value_observed("CC1CC(=O)N(N(C)C)C2(C#N)C(=O)N=C(N)C12C#N (stereo not drawn)")
"> 100 µM"
>>> value_observed("COC(=O)CC1(O)C(=O)OCc2c1cc1n(c2=O)Cc2c-1nc1ccccc1c2OC (stereo not drawn)")
"> 100 µM"
>>> value_observed("O=S(=O)(c1ccccc1)N1CCCC(c2ccccc2)CC1 (stereo not drawn)")
"> 100 µM"

Moving on to the next compound.
What measured TGI goes with Cc1c2cc[n+](Cc3ccc(I)cc3)cc2c(C)c2c1[nH]c1ccccc12 ?
> 25 µM

---

# Test system: SK-MEL-5 melanoma
# METHOD_NOTES: NCI tumour cell line growth inhibition, 48 h
TGI reference

Please review the following examples before continuing.
>>> value_observed("CC[C@H](C)[C@H](NC(=O)C12C3C4C1C1C2C3C41NC)C(=O)N(C)[C@H](C[C@@H](OC(C)=O)c1nc(C(=O)N[C@@H](Cc2ccccc2)C[C@H](C)C(=O)OC)cs1)C(C)C (some centres not stated)")
"2.85 µM"
>>> value_observed("S=c1ncc(-c2cncc(-c3cnc(=S)[nH]c3)n2)c[nH]1")
"> 100 µM"
>>> value_observed("CC(=O)ON(OCc1ccc2ccccc2c1)C(C)=O")
"> 100 µM"

What measured TGI goes with Cc1cccc2c(=O)c3c(O)cc(O)cc3n(C)c12 ?
> 100 µM

What measured TGI goes with O=c1[nH]c2cc(Cl)ccc2nc1/C(=N\Nc1ccccc1)C(O)c1ccc2c(c1)OCO2 (configuration not stated) ?
> 100 µM

What measured TGI goes with O=C(NNC(=O)c1ccco1)c1ccco1 ?
> 100 µM

---

# Tested on: OVCAR-3 ovarian
# METHOD_NOTES: NCI tumour cell line growth inhibition, 48 h
Note to self: values exactly at 5 µM are Yes. So TGI at or above 5 µM is Yes, below is No.

As a guide, the following entries are already answered.
>>> assigned_category("CCOC(=O)[C@@]12C[C@](/C=C/OC)(O[Si](C)(C)C)[C@@]13c1cc(OC)c(OC)cc1CCN3C(=O)C2=O")
"Yes"
>>> assigned_category("COc1cc(C2CC(c3ccccc3)=NN2C=O)ccc1Oc1ccnc2cc(Cl)ccc12 (stereo not given)")
"Yes"
>>> assigned_category("C=CCNC(=S)NNC(=O)c1c(C)nc2sccn12")
"Yes"
>>> assigned_category("O=P(CN1CCOCC1)(c1ccccc1)c1ccccc1")
"Yes"
>>> assigned_category("CC1NOC(=O)C1N=Nc1cccc(Cl)c1 (stereo not given)")
"Yes"
>>> assigned_category("Cc1ccc(/C=c2\\cc3oc(=O)c4cccc(c4-3)c2=O)cc1")
"Yes"

Is it the case that COc1cc2c(c(OC)c1OC)-c1cc(I)c(O)cc1[C@@H](NC(C)=O)CC2 has TGI reaching or exceeding 5 µM?
No

Is it the case that COC(=O)Cc1cc(=O)n2c3ccccc3n(C)c2c1C#N has TGI reaching or exceeding 5 µM?
Yes
